inhibition in vivo at 100 mg/kg by entry:
Test system: passive cutaneous anaphylaxis
Assay: passive cutaneous anaphylaxis test (P.C.A.) on rats, oral administration
Format: in vivo, rat (SLC Wister)
Settings: 0.5 h, rat, 100 mg/kg, antigen 30 minutes after administration, read-out: Percent inhibition (%)
Procedure: Various 5-hydroxy-quinolopyran-4-one-2-carboxylic acid esters in terms of the R group represented by the general formula [I] were prepared. […] In order to estimate the efficacy of each compound as an anti-allergic antasthmatic, the efficacy was evaluated according to a passive cutaneous anaphylaxis test (P.C.A.) on rats. To SLC Wister rats were administered intracutaneously egg white albumin recrystallized 5 times and Bodetallapertussis Vaccine, and serum was collected after 13 days from the rats. […]
ASSAY ENDPOINT: inhibition in vivo at 100 mg/kg (%)

> print(dat)
                                   molecule  recorded.value
1  Cc1ccc2c(nc(O)c3c(=O)cc(C(=O)OCCO)oc32)c1C [reference compound]            21.4
2  Cc1ccc2c(nc(O)c3c(=O)cc(C(=O)O)oc32)c1C [reference compound]             5.5
3  CCOC(=O)c1cc(=O)c2c(O)nc3c(C)c(C)ccc3c2o1 [reference compound]            36.1
4  Cc1ccc2c(nc(O)c3c(=O)cc(C(=O)OCc4ccccc4)oc32)c1C [reference compound]            13.2
5  COC(=O)c1cc(=O)c2c(O)nc3c(C)c(C)ccc3c2o1 [reference compound]            39.4
6  Cc1ccc2c(nc(O)c3c(=O)cc(C(=O)OCC(O)CO)oc32)c1C (stereo not drawn) [reference compound]             8.6
